Ref: ChEMBL document CHEMBL1201862

Provide the recorded IC50 for the entries that follow.
# system_under_test: Heat shock protein HSP 90-alpha (Homo sapiens)
# measurement_protocol: Luminescence-based dose response biochemical high throughput screening assay for inhibitors of the Heat Shock Protein 90 (HSP90). [Related pubchem assays: 1831 (Summary AID.), 1846 (Confirmation screen.), 1789 (Primary screen.)]
Activity calls are given as the source filed them. Cut-off read from the data, not from the text of the source: active = IC50 of 10 µM or less and inactive = more.

Task item: What does the record list as IC50 for CCC(C)c1ccc(OCc2ccc(C(=O)OC)o2)cc1 (stereo not given) ?
Reply: 2.29 µM (active)

Task item: What measured IC50 goes with CC(=O)CSc1ccc(-c2nc3ccccc3[nH]2)cn1 ?
Reply: 8.09 µM (active)

Task item: Entry CCN(CC)c1ccc2cc(NC(=O)CCC(=O)O)c(=O)oc2c1 : reported IC50 = ?
Reply: > 60 µM (not active)

Task item: So what does the record say about IC50 for COc1ccc(/C=C/c2noc(-c3ccccc3OC(C)=O)n2)cc1 ?
Reply: 3.29 µM (active)

Task item: # get_value(readout='IC50', item= CC1=NN(c2ccccc2)C(=O)/C1=C\N(O)c1ccccc1 )
Reply: 2.78 µM (active)
